Target: T1, TO-ZF (thiazole orange-GR zinc finger conjugate) (UniProt P06536 SEQ:1-28)
T1 chain: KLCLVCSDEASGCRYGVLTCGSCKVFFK
Assay: same as poly(dG)-poly(dC) within experimental error
Settings: protein: synthetic; tags: thiazole orange on Lys epsilon-amine (first residue coupled to resin); synthetic solid-phase peptide (text states 29 aa, listing 28 aa), Zn-loaded
pKd: −log10 of the molar value.
READOUT_NAME: pKd

Incoming: // pKd lookup, key: (dGdC)20 (dsDNA, [none]) DNA 1: GCGCGCGCGCGCGCGCGCGCGCGCGCGCGCGCGCGCGCGC DNA 2: GCGCGCGCGCGCGCGCGCGCGCGCGCGCGCGCGCGCGCGC
Outgoing: ~5.96
